Test system: SW620
Assay: In vitro anti-tumor activity evaluation test (CCK-8), SW620
Type: cell-based, human
Conditions: Homo sapiens, SW-620; SW620; 72 h; read-out: IC50 against different tumor cell lines
assay.readout: pIC50
Scale: pIC50 equals -log10([C]), with [C] in mol/L.

compound=C=C[C@]1(C)CC[C@@H](C(=C)CN2CC[C@H](OC(=O)CCCC(=O)OCCOc3no[n+]([O-])c3S(=O)(=O)c3ccccc3)C2)C[C@H]1C(=C)CCl study_system=SW620 recorded_number=5.99

### Prompt # input compound: C=C[C@]1(C)CC[C@@H](C(=C)CN(C)CCOC(=O)CCCC(=O)OCC#CCOc2no[n+]([O-])c2S(=O)(=O)c2ccccc2)C[C@H]1C(=C)CCl ; wanted: its pIC50
### Response 6.07

### Prompt Would you mind telling me what pIC50 value was observed for C=C[C@]1(C)CC[C@@H](C(=C)CN2CCC(COC(=O)CCCC(=O)OCCOc3no[n+]([O-])c3S(=O)(=O)c3ccccc3)CC2)C[C@H]1C(=C)CCl ?
### Response 6.09

### Prompt Suppose we examine the compound C=C[C@]1(C)CC[C@@H](C(=C)CN2CCCC(COC(=O)CCC(=O)OCCOc3no[n+]([O-])c3S(=O)(=O)c3ccccc3)C2)C[C@H]1C(=C)CCl (stereo partly shown) ; what pIC50 value has been reported?
### Response 5.96

====

Experiment: In vitro NO release test (incubation with L-cysteine, OD at 550 nm)
Details: 60 min; 100 μM solution with cysteine solution, 37° C.
# if measured NO-release concentrations < 20 µM: YES  # else: NO

molecule=C=C[C@]1(C)CC[C@@H](C(=C)CN2CCC(COC(=O)CCCC(=O)OCCOc3no[n+]([O-])c3S(=O)(=O)c3ccccc3)CC2)C[C@H]1C(=C)CCl classification=NO
molecule="C=C[C@]1(C)CC[C@@H](C(=C)CN2CCCC(COC(=O)CCCC(=O)OCCOc3no[n+]([O-])c3S(=O)(=O)c3ccccc3)C2)C[C@H]1C(=C)CCl (stereo partly shown)" classification=NO
molecule=C=C[C@]1(C)CC[C@@H](C(=C)CN2CCN(CCOC(=O)CCCC(=O)OCC#CCOc3no[n+]([O-])c3S(=O)(=O)c3ccccc3)CC2)C[C@H]1C(=C)CCl classification=YES
molecule=C=C[C@]1(C)CC[C@@H](C(=C)CN(CCOC(=O)CCCC(=O)OCCOc2no[n+]([O-])c2S(=O)(=O)c2ccccc2)C(C)C)C[C@H]1C(=C)CCl classification=YES
molecule="C=C[C@]1(C)CC[C@@H](C(=C)CN2CCC(OC(=O)CCCC(=O)OCC#CCOc3no[n+]([O-])c3S(=O)(=O)c3ccccc3)C2)C[C@H]1C(=C)CCl (stereo partly shown)" classification=NO
molecule=C=C[C@]1(C)CC[C@@H](C(=C)CN(CCOC(=O)CCC(=O)OCCOc2no[n+]([O-])c2S(=O)(=O)c2ccccc2)C(C)C)C[C@H]1C(=C)CCl classification=YES
molecule=C=C[C@]1(C)CC[C@@H](C(=C)CN2CCC(COC(=O)CCCC(=O)OCC#CCOc3no[n+]([O-])c3S(=O)(=O)c3ccccc3)CC2)C[C@H]1C(=C)CCl classification=NO
molecule=C=C[C@]1(C)CC[C@@H](C(=C)CN2CCC(COC(=O)CCC(=O)OCC#CCOc3no[n+]([O-])c3S(=O)(=O)c3ccccc3)CC2)C[C@H]1C(=C)CCl classification=NO
molecule=C=C[C@]1(C)CC[C@@H](C(=C)CN(C)CCOC(=O)CCC(=O)OCC#CCOc2no[n+]([O-])c2S(=O)(=O)c2ccccc2)C[C@H]1C(=C)CCl classification=NO
molecule=C=C[C@]1(C)CC[C@@H](C(=C)CN(C)CCOC(=O)CCC(=O)OCCOc2no[n+]([O-])c2S(=O)(=O)c2ccccc2)C[C@H]1C(=C)CCl classification=YES

### Prompt NO-release concentrations strictly < 20 µM for this molecule? C=C[C@]1(C)CC[C@@H](C(=C)CN2CC[C@H](OC(=O)CCC(=O)OCCOc3no[n+]([O-])c3S(=O)(=O)c3ccccc3)C2)C[C@H]1C(=C)CCl
### Response YES

### Prompt Given the entry C=C[C@]1(C)CC[C@@H](C(=C)CN2CCN(CCOC(=O)CCC(=O)OCCOc3no[n+]([O-])c3S(=O)(=O)c3ccccc3)CC2)C[C@H]1C(=C)CCl , would its reported NO-release concentrations be below 20 µM?
### Response YES

### Prompt For this molecule, is NO-release concentrations lower than 20 µM? C=C[C@]1(C)CC[C@@H](C(=C)CN2CCN(CCOC(=O)CCCC(=O)OCCOc3no[n+]([O-])c3S(=O)(=O)c3ccccc3)CC2)C[C@H]1C(=C)CCl
### Response YES
